conditions: in ethanol, 278.15 K
READOUT_TYPE: solubility (mole fraction)
API note: the answer field is a bare number with no unit suffix.

Note to self: solubility (mole fraction) recorded for CO[C@H]1/C=C/O[C@@]2(C)Oc3c(C)c(O)c4c(O)c(c(/C=N/N5CCN(C6CCCC6)CC5)c(O)c4c3C2=O)NC(=O)/C(C)=C\C=C\[C@H](C)[C@H](O)[C@@H](C)[C@@H](O)[C@@H](C)[C@H](OC(C)=O)[C@@H]1C was 0.000515

* * *

settings: in acetone, 323.15 K
READOUT_TYPE: solubility (mole fraction)
In your answer, state the number alone without any accompanying words.

Lab book: solubility (mole fraction) of CO[C@H]1/C=C/O[C@@]2(C)Oc3c(C)c(O)c4c(O)c(c(/C=N/N5CCN(C6CCCC6)CC5)c(O)c4c3C2=O)NC(=O)/C(C)=C\C=C\[C@H](C)[C@H](O)[C@@H](C)[C@@H](O)[C@@H](C)[C@H](OC(C)=O)[C@@H]1C noted as 0.000701

* * *

conditions: in chloroform, 323.15 K
READOUT_TYPE: solubility (mole fraction)
The reply should be a number, written without any unit.

get_value(item= CO[C@H]1/C=C/O[C@@]2(C)Oc3c(C)c(O)c4c(O)c(c(/C=N/N5CCN(C6CCCC6)CC5)c(O)c4c3C2=O)NC(=O)/C(C)=C\C=C\[C@H](C)[C@H](O)[C@@H](C)[C@@H](O)[C@@H](C)[C@H](OC(C)=O)[C@@H]1C , readout=solubility (mole fraction)) returns 0.0334

* * *

settings: in chloroform, 278.15 K
READOUT_TYPE: solubility (mole fraction)
Give your answer as a number; write no unit.

Form: compound = CO[C@H]1/C=C/O[C@@]2(C)Oc3c(C)c(O)c4c(O)c(c(/C=N/N5CCN(C6CCCC6)CC5)c(O)c4c3C2=O)NC(=O)/C(C)=C\C=C\[C@H](C)[C@H](O)[C@@H](C)[C@@H](O)[C@@H](C)[C@H](OC(C)=O)[C@@H]1C ; solubility (mole fraction) = 0.0254

* * *

conditions: in methanol, 297.15 K
READOUT_TYPE: solubility (mole fraction)

According to the records, this compound CO[C@H]1/C=C/O[C@@]2(C)Oc3c(C)c(O)c4c(O)c(c(/C=N/N5CCN(C6CCCC6)CC5)c(O)c4c3C2=O)NC(=O)/C(C)=C\C=C\[C@H](C)[C@H](O)[C@@H](C)[C@@H](O)[C@@H](C)[C@H](OC(C)=O)[C@@H]1C displays solubility (mole fraction) of 0.0242

* * *

settings: in methanol, 318.15 K
READOUT_TYPE: solubility (mole fraction)
Number only, please.

// CO[C@H]1/C=C/O[C@@]2(C)Oc3c(C)c(O)c4c(O)c(c(/C=N/N5CCN(C6CCCC6)CC5)c(O)c4c3C2=O)NC(=O)/C(C)=C\C=C\[C@H](C)[C@H](O)[C@@H](C)[C@@H](O)[C@@H](C)[C@H](OC(C)=O)[C@@H]1C : solubility (mole fraction) value = 0.0278

* * *

details: in acetone, 303.15 K
READOUT_TYPE: solubility (mole fraction)

According to the records, this compound CO[C@H]1/C=C/O[C@@]2(C)Oc3c(C)c(O)c4c(O)c(c(/C=N/N5CCN(C6CCCC6)CC5)c(O)c4c3C2=O)NC(=O)/C(C)=C\C=C\[C@H](C)[C@H](O)[C@@H](C)[C@@H](O)[C@@H](C)[C@H](OC(C)=O)[C@@H]1C displays solubility (mole fraction) of 0.000576

* * *

conditions: in chloroform, 318.15 K
READOUT_TYPE: solubility (mole fraction)

The value of solubility (mole fraction) measured for the compound CO[C@H]1/C=C/O[C@@]2(C)Oc3c(C)c(O)c4c(O)c(c(/C=N/N5CCN(C6CCCC6)CC5)c(O)c4c3C2=O)NC(=O)/C(C)=C\C=C\[C@H](C)[C@H](O)[C@@H](C)[C@@H](O)[C@@H](C)[C@H](OC(C)=O)[C@@H]1C turned out to be 0.0326

* * *

conditions: in acetone, 283.15 K
READOUT_TYPE: solubility (mole fraction)
Simply state the number, no unit and no words.

Form field solubility (mole fraction), entry CO[C@H]1/C=C/O[C@@]2(C)Oc3c(C)c(O)c4c(O)c(c(/C=N/N5CCN(C6CCCC6)CC5)c(O)c4c3C2=O)NC(=O)/C(C)=C\C=C\[C@H](C)[C@H](O)[C@@H](C)[C@@H](O)[C@@H](C)[C@H](OC(C)=O)[C@@H]1C : 0.00053

* * *

conditions: in chloroform, 293.15 K
READOUT_TYPE: solubility (mole fraction)

Input CO[C@H]1/C=C/O[C@@]2(C)Oc3c(C)c(O)c4c(O)c(c(/C=N/N5CCN(C6CCCC6)CC5)c(O)c4c3C2=O)NC(=O)/C(C)=C\C=C\[C@H](C)[C@H](O)[C@@H](C)[C@@H](O)[C@@H](C)[C@H](OC(C)=O)[C@@H]1C . Output solubility (mole fraction): 0.0287

* * *

conditions: in ethanol, 323.15 K
READOUT_TYPE: solubility (mole fraction)
Hey, just send me the number, nothing else.

Noted for CO[C@H]1/C=C/O[C@@]2(C)Oc3c(C)c(O)c4c(O)c(c(/C=N/N5CCN(C6CCCC6)CC5)c(O)c4c3C2=O)NC(=O)/C(C)=C\C=C\[C@H](C)[C@H](O)[C@@H](C)[C@@H](O)[C@@H](C)[C@H](OC(C)=O)[C@@H]1C : its solubility (mole fraction) reads 0.000703

* * *

conditions: in ethanol, 318.15 K
READOUT_TYPE: solubility (mole fraction)
Respond numerically, and do not add a unit to the figure.

Measured solubility (mole fraction) of CO[C@H]1/C=C/O[C@@]2(C)Oc3c(C)c(O)c4c(O)c(c(/C=N/N5CCN(C6CCCC6)CC5)c(O)c4c3C2=O)NC(=O)/C(C)=C\C=C\[C@H](C)[C@H](O)[C@@H](C)[C@@H](O)[C@@H](C)[C@H](OC(C)=O)[C@@H]1C : 0.000677
